Values compiled from the supplement of paper PMC10567573.

B1: EPB41L3 (parent)
chain: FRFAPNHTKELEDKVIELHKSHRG

Variants of: B1
Assay: protein stability index of a GFP-peptide fusion (GPS, HEK-293T) (PSI 1-6); higher = more stable;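 note: lentivirally expressed fusions sorted by FACS into six bins by GFP to DsRed ratio, PSI derived from sequencing read proportions per bin multiplied by bin number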
Conditions: c terminus: a fixed tail appended
measured-attribute: protein stability index
Form field (numeric): enter value without unit.

Before answering, review these 3 worked examples.
{"columns": ["sequence-code", "protein stability index"],
 "data": [
  ["FRFAPNHTKELEDKVIWLHKSHRG [E17W]", 2.18],
  ["FRFGPNHTKELEDKVIELHKSHRG [A4G]", 3.08],
  ["FRFAPNHTKEKEDKVIELHKSHRG [L11K]", 2.53]
]}

Tell me measured protein stability index for FRFYPNHTKELEDKVIELHKSHRG [A4Y] please.
2.88

Tell me measured protein stability index for FRFAPNHTKELEDKVIELWKSHRG [H19W] please.
1.53

Tell me measured protein stability index for HRFAPNHTKELEDKVIELHKSHRG [F1H] please.
4.62

Tell me measured protein stability index for FRFAPNHTKELEDKVIELHKCHRG [S21C] please.
1.78

Tell me measured protein stability index for FRFAPNHTKELEDKVIELHRSHRG [K20R] please.
1.39

Tell me measured protein stability index for FRFAPNHTKENEDKVIELHKSHRG [L11N] please.
1.65

Tell me measured protein stability index for FRAAPNHTKELEDKVIELHKSHRG [F3A] please.
3.78
